System: washed platelets
Assay: Washed Platelet Aggregation (WPA), CD9 antibody-induced
Assay type: cell-based
Conditions: washed platelets from healthy volunteers; aggregation induced by mouse anti-human CD9 antibody
# IC50 values compiled below

[
  {
    "compound": "Cc1cc(C(C)Nc2ccccc2C(=O)O)c2nc(N3CCOCC3)cc(=O)n2c1 (single isomer, unassigned; (-)) [Ex. 1]",
    "readout-units": "nM",
    "IC50": 6
  },
  {
    "compound": "Cc1cc(C(C)Nc2ccccc2C(=O)O)c2nc(N3CCOCC3)cc(=O)n2c1 (single isomer, unassigned; (+)) [Ex. 2]",
    "readout-units": "nM",
    "IC50": 1650
  }
]
